Biological target: T1, MuMER.Ig1&2 (A70-P279) (mouse, UniProt Q60805 70-279)
T1 construct: range 70-279; also called mouse MerTK Ig-like 1&2 domains
T1 sequence (looked up): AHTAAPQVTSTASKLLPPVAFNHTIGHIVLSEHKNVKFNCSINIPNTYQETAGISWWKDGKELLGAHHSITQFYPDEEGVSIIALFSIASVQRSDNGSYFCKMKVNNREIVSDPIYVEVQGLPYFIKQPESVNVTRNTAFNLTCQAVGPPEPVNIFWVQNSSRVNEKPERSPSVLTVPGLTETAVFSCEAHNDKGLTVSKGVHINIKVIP
Assay: SPR BIAcore T200, Ab captured, 25C
pKd: −log10 of the molar value.
# maps each entry to its pKd
Parameter: pKd

Rbt18G7 (antibody, V domains shown, Recombinant rabbit monoclonal antibody, Expi293, protein A purified) VH: QSLEESGGRLVTPGTPLTLTCTVSGIDLSSYALGWVRQAPGKGLEYIGIISSTGTTYYATWAKGRFTISKTSSTTVDLKITGPTTEDTATYFCARGAYAGYVAFGPYYFHIWGPGTLVTISL VL: DIVMTQTPASVEAAVGGTVTIKCQASQSISNFLAWYQQKPGQPPKVLIYAASHLASGVPSRFKGSGSGTQFTLTISDLECADAATYYCQSYFYSSTSIYNAFGGGTEVVVR: 8.72
Rbt11G11 (antibody, V domains shown, Recombinant rabbit monoclonal antibody, Expi293, protein A purified) VH: QELVESGGGLVQAGESLKLSCKASGIDFSSYGISWVRQAPGKGLEWIAYIYPGFGITNYAHSVKGRFTISSDNAQNTVFLQMPSLTASDTATYFCARDLDYTGGVVGYAYVTYYFTLWGPGTLVTVSS VL: DPVLTQTPSSVEAAVGGTVTIKCQASESISSRLAWYQQKPGQPPKLLIYSASTLASGVSSRFKGSGSGTEFTLTISDLECADAATYYCQTYYGGSTTGWYVFGGGTEVVVK: 8.47
Rbt14C9 (antibody, V domains shown, Recombinant rabbit monoclonal antibody, Expi293, protein A purified) VH: QSVEESGGRLVTPGTPLTLTCTVSGIDLSANTMNWVRQAPGKGLEWIGIFTATGSTYYATWVNGRFTISKTSTTVDLKITSPTTEDTATYFCARSGSGSSSGAFNIWGPGTLVTVSL VL: DPVLTQTPASVSEPVGGTVTIKCQASQSISSSLAWYQQKPGQPPKLLIYAASILASEISSRFKGSRSGTEFTLTISDLECADAATYYCQCTSYGSLFLGPFGGGTEVVVK: 9.30
Rbt12H4 (antibody, V domains shown, Recombinant rabbit monoclonal antibody, Expi293, protein A purified) VH: QSVEESGGRLVTPGTPLTVTCTVSGFSLSVYGMGWVRQAPGKGLEYIGFINNVGNTYYASWAKGRFTISKTSTTVDLKITSPTTEDTATYFCAKGGGGDWGYFNIWGPGTLVTVSL VL: DVVMTQTPASVEAAVGGTVTIKCQASQSIGNALAWYQQKPGQRPKLLIYAASNLASGVPSRFAGSGSGTQFTLTISDLECADAATYYCQTYYAINRYGGAFGGGTEVVVK: 7.96
